Each recorded value in this set is attributed to ChEMBL document CHEMBL1201862.

Reported values of GI50 for individual entries
System: SF-268
Test: NCI tumour cell line growth inhibition, 48 h
Activity calls are given as the source filed them. No stated cut-off is given here; in the data, active = GI50 up to about 1.1 µM and inactive = higher.

compound	measured_on	GI50
CN(N=O)N1C(=O)SCC(c2ccccc2)(c2ccccc2)C1=O	SF-268	32.1 µM (inactive)
CC1(C)O/C(=C\c2ccccc2)C(=O)/C(=C/c2ccccc2)O1	SF-268	57.4 µM (inactive)
O=C(O[C@@H](/C=C/c1ccccc1)P1(=O)N(Cc2ccccc2)[C@@H]2CCCC[C@H]2N1Cc1ccccc1)c1ccccc1	SF-268	5.06 µM (inactive)
CC1(CO)OC(n2cnc3c(N)ncnc32)C(O)C1O (stereo not given)	SF-268	> 100 µM (inactive)
CCOC(=O)CC[C@H](NC(=O)[C@H](N)Cc1ccc(N(CCCl)CCCl)cc1)C(=O)OCC	SF-268	1.43 µM (inactive)

Give SF-268 GI50 for the following compound: COc1ccc(-n2c(C)nc3ccc(NC4OC(COC(C)=O)C(OC(C)=O)C(OC(C)=O)C4OC(C)=O)cc3c2=O)cc1 (stereo not given)
> 100 µM (inactive)

Give SF-268 GI50 for the following compound: CC(C)(C)OC(=O)N1CCC2(CC1)C(=O)NCN2c1ccccc1
> 100 µM (inactive)

====

Reported values of GI50 for individual entries
System: NCI-H226
Experiment: NCI tumour cell line growth inhibition, 48 h
Activity calls are given as the source filed them. Rule as the data show it: active = GI50 up to about 1.1 µM and inactive = higher.

Below are worked cases with known answers.
compound	GI50
CC1=C2c3ccccc3N(C(=O)/C=C/C(=O)O)[C@H]2[C@H]2C(=O)OC(=O)[C@H]2C1	> 10 µM (inactive)
C=CC1=C(C)c2cc3[nH]c(c4c5nc(cc6[nH]c(cc1n2)c(C=O)c6CC)C(C)=C5C(=O)[C@@H]4C(=O)OC)[C@@H](CCC(=O)O)[C@@H]3C	> 100 µM (inactive)
CN(C)CC1CCC/C(=C\c2ccc(OC(=O)c3ccc(Cl)cc3)cc2)C1=O (stereo not drawn)	3.06 µM (inactive)

Give NCI-H226 GI50 for the following compound: Cc1ccc(NC(=O)CCC(CC(=O)C(C)(C)C)=NNC(=O)C(=O)NN)cc1C
> 100 µM (inactive)

Give NCI-H226 GI50 for the following compound: O=C1CCCCC/C1=C\c1cccc(Cl)c1
34.4 µM (inactive)

Give NCI-H226 GI50 for the following compound: COC(=O)C1=C(C(=O)OC)SC(=C2S[C@@H]3[C@@H]4C[C@H]([C@@H]3S2)[C@H]2C(=O)OC(=O)[C@@H]42)S1
> 100 µM (inactive)

Give NCI-H226 GI50 for the following compound: Nc1nc(SCc2ccccc2[N+](=O)[O-])c2[nH]cnc2n1
> 50.9 µM (inactive)

Give NCI-H226 GI50 for the following compound: O=C(CCC(NC(=O)OCc1ccccc1)C(=O)OCc1ccccc1)Nc1cccc(OCc2ccccc2)c1 (stereo not drawn)
29.1 µM (inactive)

Give NCI-H226 GI50 for the following compound: COC(=O)C(C(=O)C(=O)Nc1nc2ccc([N+](=O)[O-])cc2s1)c1nc2ccc(Cl)cc2nc1O (stereo not drawn)
> 100 µM (inactive)

Give NCI-H226 GI50 for the following compound: Cc1cc(/N=C/c2c(CO)cnc(C)c2O)c(/N=C/c2c(CO)cnc(C)c2O)cc1C.[Zn+2]
> 100 µM (inactive)

Give NCI-H226 GI50 for the following compound: COc1ccc(-c2ncnc(-c3ccc(OC)c(OC)c3)n2)cc1OC
> 100 µM (inactive)

Give NCI-H226 GI50 for the following compound: O=C1O[C@H]2C3C4CCC(C4[C@@H]2I)[C@H]13 (stereo partly drawn)
> 100 µM (inactive)

Give NCI-H226 GI50 for the following compound: CCOC(=O)CCC(NC(=O)Cc1ccc(Nc2nc3cc(F)c(F)cc3nc2C(=O)OCC)cc1)C(=O)OCC (stereo not drawn)
> 100 µM (inactive)

Give NCI-H226 GI50 for the following compound: CCOC(=O)c1sc2c(c1O)c(=O)n(-c1ccccc1)c(=S)n2-c1ccccc1
> 100 µM (inactive)

Give NCI-H226 GI50 for the following compound: CN1C2CCC1C(C(O)c1ccccc1[N+](=O)[O-])C(=O)C2 (stereo not drawn)
24.2 µM (inactive)

Give NCI-H226 GI50 for the following compound: OC1C2CCC3C2CC(C(O)(c2ccccc2)c2ccccc2)C13 (stereo not drawn)
28.6 µM (inactive)

Give NCI-H226 GI50 for the following compound: O=C1c2ccccc2C(=O)c2nc3ccc(Cl)cc3cc21
> 100 µM (inactive)

Give NCI-H226 GI50 for the following compound: CN1CCN(C(=O)CCC(=O)Nc2cc3c(c4ccccc24)-c2ccc4ccccc4c2C3)CC1
1.76 µM (inactive)

Give NCI-H226 GI50 for the following compound: COc1ccc(P2(=S)OC(C)(C)C(C)(C)O2)cc1
> 100 µM (inactive)

Give NCI-H226 GI50 for the following compound: Nc1ccc2cc(S(=O)(=O)O)cc(O)c2c1/N=N/c1ccc(NC(=O)Nc2ccc(/N=N/c3c(N)ccc4cc(S(=O)(=O)O)cc(O)c34)c(S(=O)(=O)O)c2)cc1S(=O)(=O)O
> 100 µM (inactive)

====

Tested on: UACC-62
Assay: NCI tumour cell line growth inhibition, 48 h
The source made the active and inactive calls. No stated cut-off is given here; in the data, active = GI50 up to about 1.1 µM and inactive = higher.
Reported values of GI50 for individual entries

Determine its reported GI50: COC(=O)C1CCC(=O)C(Sc2ccccc2)C1 (stereo not given)
80.7 µM (inactive)

Determine its reported GI50: CC1(C)C(=O)C(C)(C)C12SSC1(S2)C(C)(C)C(=O)C1(C)C
> 100 µM (inactive)

Determine its reported GI50: COC(=O)C(C(=O)C(=O)Nc1ccc(C)cc1C)c1nc2ccc([N+](=O)[O-])cc2nc1O (stereo not given)
> 100 µM (inactive)

Determine its reported GI50: COc1ccc(/C=C2\NC(=S)N(/C=C3\C(=O)Oc4ccccc4C3=O)C2=O)cc1OC
> 100 µM (inactive)

Determine its reported GI50: OC(c1ccc2c(c1)OCO2)c1ccc2c(c1)OCO2
> 100 µM (inactive)

====

System: HCT-15
Reported values of GI50 for individual entries
Only the number, expressed in µM, is required.

In [3]: df
Out[3]:
                                   compound  property  observed_measurement
0   O=C1C=C2C(=CCOC2O)O1 (stereo not given)      GI50                 0.668
1  Cc1ccc(S(=O)(=O)N/N=C2/C3C(CC2(C)C)C2(C)CCCC3(C)C2O)cc1 (stereo not given)      GI50                  23.2

Here's the next entry for you.
Give HCT-15 GI50 for the following compound: COc1ccc2c(c1)-c1oc3ccccc3c(=O)c1CO2
24.9

====

Tested on: A549
Assay: NCI tumour cell line growth inhibition, 48 h
Calls of active or inactive are those of the source. Cut-off read from the data, not from the text of the source: active = GI50 up to about 1.1 µM and inactive = higher.
Outcome field: choose from label 1 (active), label 0 (inactive)

>>> df
                                compound  discrete_label
0       O=C1OC(c2ccccc2)=N/C1=C\c1ccccc1         label 0
1  CNC(C)Cc1ccccc1O (stereo unspecified)         label 0
2   Nn1c(S)nnc1COc1cccc(OCc2nnc(S)n2N)c1         label 0

Then there is this compound:
// return assay outcome for Cc1c2c(cc3c1[nH]c1ccccc13)C(c1ccc(Cl)cc1)=NCC2
label 1

====

Reported values of GI50 for individual entries
Test system: T47D
Experiment: NCI tumour cell line growth inhibition, 48 h
Calls of active or inactive are those of the source. No stated cut-off is given here; in the data, active = GI50 up to about 1.1 µM and inactive = higher.

Below are worked cases with known answers.
compound	measured_on	observed_measurement
O=P(O)(O)CC1OC(CO)C(O)C1O (configuration not stated)	T47D	> 100 µM (inactive)
COc1cc([C@@H]2c3cc4c(cc3[C@@H](Nc3ccc(NC(=O)c5cc(NC(=O)c6cc([N+](=O)[O-])cn6C)cn5C)cc3)[C@H]3COC(=O)[C@H]23)OCO4)cc(OC)c1O	T47D	31.1 µM (inactive)
O=C(NCCCNCCCCNCCCNC(=O)C(F)(F)F)C(F)(F)F	T47D	> 100 µM (inactive)
COC(=O)C1=CO[C@@H](OC2OC(CO)C(O)C(O)C2O)[C@@H]2[C@H](C)[C@@H](O)[C@@H](O)[C@]12O (some centres not stated)	T47D	> 100 µM (inactive)
CC/C=C/C[C@H](O)[C@H]1C[C@H]2O[C@H](CC(=O)OC)C[C@H]2O1	T47D	> 100 µM (inactive)

Give T47D GI50 for the following compound: CCOC(=O)c1cn2c(n1)sc1cc(Cl)cc(Cl)c12
> 100 µM (inactive)

Give T47D GI50 for the following compound: CC(C)CC(NC(=O)OC(C)(C)C)C(=O)Nc1ccc(Nc2nc(F)nc(-c3c4ccccc4cn3C)n2)cc1 (configuration not stated)
40.4 µM (inactive)
